Assign IC50 to each entry below.
subjectOfTest: Protein farnesyltransferase (Homo sapiens, UniProt P49354+P49356)
assayProtocol: Inhibitory activity against farnesyltransferase (FT) using SPA assay
Give bare numbers, in pM.

# compound, reportedMetric, readoutUnit, reported
measured = [
    ("CSCC[C@H](NC(=O)c1ccc(/C=C/c2cnccn2)cc1-c1ccccc1C)C(=O)O", "IC50", "pM", 57000),
]

Batch request: IC50 for each of the following compounds.
1. CSCC[C@H](NC(=O)c1ccc(/C=C/c2cnccc2C(O)c2ccccc2)cc1-c1ccccc1C)C(=O)O (stereo partly drawn)
2. CSCC[C@H](NC(=O)c1ccc(/C=C/c2cnccc2O)cc1-c1ccccc1C)C(=O)O
3. CSCC[C@H](NC(=O)c1ccc(C#Cc2cccnc2)cc1-c1ccccc1C)C(=O)O
4. CSCC[C@H](NC(=O)c1ccc(/C=C/c2cccnc2)cc1-c1ccccc1C)C(=O)O
5. CSCC[C@H](NC(=O)c1ccc(/C=C/c2cncc3ccccc23)cc1-c1ccccc1C)C(=O)O
6. CSCC[C@H](NC(=O)c1ccc(/C=C/c2cnccc2C(O)[C@]23C[C@H]4C[C@H](C[C@H](C4)C2)C3)cc1-c1ccccc1C)C(=O)O (stereo partly drawn)
7. COc1ccncc1/C=C/c1ccc(C(=O)N[C@@H](CCSC)C(=O)O)c(-c2ccccc2C)c1

Key:
1: 580; 2: 290; 3: 2700; 4: 610; 5: 800; 6: 370; 7: 2900

----------
subjectOfTest: Protein farnesyltransferase (Homo sapiens, UniProt P49354+P49356)
assayProtocol: Inhibitory activity against farnesyltransferase (FT) using SPA assay
reportedMetric: IC50 (nM)
Answers are plain numbers, in nM.

Past entries and their recorded results:
# smilesData, readoutUnit, IC50
rows = [
    ("CSCC[C@H](NC(=O)c1ccc(/C=C/c2cnccc2C(O)(c2ccccc2)c2ccccc2)cc1-c1ccccc1C)C(=O)O", "nM", 0.66),
    ("CCCOc1ccncc1/C=C/c1ccc(C(=O)N[C@@H](CCSC)C(=O)O)c(-c2ccccc2C)c1", "nM", 1.4),
    ("CSCC[C@H](NC(=O)c1ccc(/C=C/c2cnccc2C(=O)c2ccccc2)cc1-c1ccccc1C)C(=O)O", "nM", 0.92),
]

Exercise: Given the compound CSCC[C@H](NC(=O)c1ccc(/C=C/c2cnccc2C(=O)[C@]23C[C@H]4C[C@H](C[C@H](C4)C2)C3)cc1-c1ccccc1C)C(=O)O , what is its reported IC50?
Key: 0.12

----------
Assign Inhibition to each entry below.
Tested on: NIH3T3
assayProtocol: Inhibition of H-ras processing in subconfluent H-Ras-transformed NIH3T3 cells
Assay type: functional, Mus musculus
Set-up: concentration or dose not given beside the values
Numbers only, in %.

Past entries and their recorded results:
# compound, subjectOfTest, readoutUnit, reported
records = [
    ("CSCC[C@H](NC(=O)c1ccc(/C(C#N)=C\\c2cccnc2)cc1-c1ccccc1C)C(=O)O", "NIH3T3", "%", 60),
    ("CSCC[C@H](NC(=O)c1ccc(/C=C/c2cnccc2C(O)[C@]23C[C@H]4C[C@H](C[C@H](C4)C2)C3)cc1-c1ccccc1C)C(=O)O (stereo partly specified)", "NIH3T3", "%", 61),
    ("CCCOc1ccncc1/C=C/c1ccc(C(=O)N[C@@H](CCSC)C(=O)O)c(-c2ccccc2C)c1", "NIH3T3", "%", 49),
    ("COc1ccncc1/C=C/c1ccc(C(=O)N[C@@H](CCSC)C(=O)O)c(-c2ccccc2C)c1", "NIH3T3", "%", 66),
    ("CSCC[C@H](NC(=O)c1ccc(/C=C/c2cnccc2Cl)cc1-c1ccccc1C)C(=O)O", "NIH3T3", "%", 60),
]

API: the following record is the query input.
Exercise: Given the compound CSCC[C@H](NC(=O)c1ccc(/C=C/c2cnccc2C(O)C2CCCCC2)cc1-c1ccccc1C)C(=O)O (stereo partly specified) , what is its reported Inhibition?
Key: 63

Source of measurements: ChEMBL document CHEMBL1132058
